Numbers sourced from PubChem BioAssay AID1259407.

- System: CCRIS mutagenicity, Ames/micronucleus/aberration tests
- run.description: CCRIS mutagenicity studies
- condition.notes: End Point: IN VITRO CHROMOSOMAL ABERRATIONS; Test System: CHL CELLS; Metabolic Activation: RAT, LIVER, S-9, SODIUM PHENOBARBITAL AND 5,6-BENZOFLAVONE
Active and inactive are the calls of the source. No rule for the calls is given here.
Thanks in advance; please answer with one of these: yes (1) (active), no (0) (inactive)

# count of solved cases: 5
molecule: CCOC(=O)CBr
class.label: no (0)
//
molecule: COc1ccccc1[N+](=O)[O-]
class.label: yes (1)
//
molecule: C=CCOCC1CO1 (stereo unspecified)
class.label: yes (1)
//
molecule: Nc1ccc(Cl)c(N)c1
class.label: yes (1)
//
molecule: COc1ccc(NC(C)=O)cc1N
class.label: yes (1)

Request: Which result was noted for this molecule in the test: CN(C)N
Response: yes (1)

Request: Which result was noted for this molecule in the test: Clc1ccc(C(Cl)c2ccccn2)cc1 (stereo unspecified)
Response: yes (1)

Request: Which result was noted for this molecule in the test: Clc1ccc(C(Cl)(Cl)Cl)cc1
Response: yes (1)

Request: Which result was noted for this molecule in the test: CC(Br)C(=O)O (stereo unspecified)
Response: yes (1)

Request: Which result was noted for this molecule in the test: ClCc1ccccc1
Response: yes (1)

Request: Which result was noted for this molecule in the test: O=Nc1ccc(NO)cc1
Response: yes (1)

Request: Which result was noted for this molecule in the test: Nc1ccc([N+](=O)[O-])cc1[N+](=O)[O-]
Response: yes (1)

Request: Which result was noted for this molecule in the test: Cc1cc(-c2ccc(N)c(C)c2)ccc1N
Response: no (0)

Request: Which result was noted for this molecule in the test: Cc1ccc(N)cc1N
Response: yes (1)

Request: Which result was noted for this molecule in the test: Nc1cccc(N)c1
Response: yes (1)

Request: Which result was noted for this molecule in the test: Nc1c(Cl)cc(Cl)cc1Cl
Response: no (0)

----------
- Tested on: CCRIS mutagenicity, Ames/micronucleus/aberration tests
- run.description: CCRIS mutagenicity studies
- condition.notes: Test System: MOUSE LYMPHOMA; Strain/Indicator: L5178Y (TK+/TK-); Metabolic Activation: RAT, LIVER, S-9, AROCLOR 1254; Method: SUSPENSION/PLATE
Activity calls are given as the source filed them. The rule behind the calls is not given here.
Thanks in advance; please answer with one of these: yes (1) for active, no (0) for inactive

compound: NC(CO)Cc1cnc[nH]1 (configuration not stated)
test.system: CCRIS mutagenicity, Ames/micronucleus/aberration tests
class.label: no (0)

compound: CCN(CC)c1cc(NC(C)=O)c(N=Nc2ccc([N+](=O)[O-])cc2)cc1OC
test.system: CCRIS mutagenicity, Ames/micronucleus/aberration tests
class.label: no (0)

compound: C=C[Si](C)(Cl)Cl
test.system: CCRIS mutagenicity, Ames/micronucleus/aberration tests
class.label: no (0)

Request: Which result was noted for this compound in the test: O=C1NC(=O)C(c2ccccc2)(c2ccccc2)N1
Response: no (0)

Request: Which result was noted for this compound in the test: Cc1cc(N=Nc2ccccc2C)ccc1N
Response: yes (1)

Request: Which result was noted for this compound in the test: ClC(Cl)Br
Response: yes (1)

Request: Which result was noted for this compound in the test: NCC(=O)O
Response: no (0)

----------
- System: CCRIS mutagenicity, Ames/micronucleus/aberration tests
- run.description: CCRIS mutagenicity studies
- condition.notes: Test System: AMES SALMONELLA TYPHIMURIUM; Strain/Indicator: TA100; Metabolic Activation: RAT, LIVER, S-9, AROCLOR 1254; Method: STANDARD PLATE
Activity calls are given as the source filed them. How the calls were made is not given here.
Thanks in advance; please answer with one of these: Y (active), N (inactive)

# count of solved cases: 2
compound: O=C(O)/C=C/c1ccc([N+](=O)[O-])cc1
class.label: Y

compound: O=C(O)c1cc(Cl)cc2cccnc12
class.label: Y

Request: Which result was noted for this compound in the test: C=CC(=O)OCC (tested in a mixture with another compound)
Response: Y

Request: Which result was noted for this compound in the test: O=C1CC2=C(CCCC2)c2c1c1c(c3c2=CC=C3)C=CC=1
Response: N

Request: Which result was noted for this compound in the test: Cc1cncc(C)n1
Response: N

Request: Which result was noted for this compound in the test: Cc1cc(N)cc(C)c1N
Response: N

Request: Which result was noted for this compound in the test: COc1ccc(N(CCCl)CCCl)c2cc([N+](=O)[O-])oc12
Response: Y

----------
- System: CCRIS mutagenicity, Ames/micronucleus/aberration tests
- run.description: CCRIS mutagenicity studies
- condition.notes: Test System: AMES SALMONELLA TYPHIMURIUM; Strain/Indicator: TA98; Metabolic Activation: NONE; Method: STANDARD PLATE
Active and inactive are the calls of the source. No rule for the calls is given here.
Thanks in advance; please answer with one of these: active, inactive

# count of solved cases: 5
compound: BrCc1ccc(CBr)cc1
class.label: inactive
//
compound: c1ccc2c(c1)Cc1ccccc1-2
class.label: inactive
//
compound: BrCc1ccc2cccc3c2c1-c1ccccc1-3
class.label: active
//
compound: Cn1c([N+](=O)[O-])cnc1C1NC(CO)(CO)CO1 (configuration not stated)
class.label: active
//
compound: [Cd]
class.label: inactive

Request: Which result was noted for this compound in the test: O=c1[nH]c(=O)[nH]c(=O)[nH]1
Response: inactive

Request: Which result was noted for this compound in the test: CC(C)(C)NCC(O)COc1cccc2c1CC(O)C(O)C2 (configuration not stated)
Response: inactive

Request: Which result was noted for this compound in the test: O=[N+]([O-])c1ccccc1OS(=O)(=O)c1cccc2cccnc12
Response: inactive

Request: Which result was noted for this compound in the test: O=NN1C(C(=O)O)CSC1C(O)C(O)C(O)C(O)CO (configuration not stated)
Response: inactive

Request: Which result was noted for this compound in the test: COc1c(Cl)ccc2oc3cc4c(c(OC)c3c(=O)c12)[C@@H]1C=CO[C@@H]1O4
Response: inactive

Request: Which result was noted for this compound in the test: CCOc1cc(N=Nc2ccccc2)ccc1N=Nc1c(S(=O)(=O)O)cc2ccc(N)cc2c1O
Response: inactive

Request: Which result was noted for this compound in the test: O=C1c2ccccc2-c2c1c1ccccc1c(=O)n2CCNCCO
Response: inactive

Request: Which result was noted for this compound in the test: CC(CNC(=O)c1cccnc1)NC(=O)c1cccnc1 (configuration not stated)
Response: inactive

Request: Which result was noted for this compound in the test: O=C1Cc2cc3ccc([N+](=O)[O-])cc3cc2[C@H](O)[C@H]1O
Response: inactive

Request: Which result was noted for this compound in the test: ClCc1ccc2c(c1)-c1cccc3cccc-2c13
Response: active

Request: Which result was noted for this compound in the test: N#Cc1ccc(/C=C\c2ccc([N+](=O)[O-])cc2)cc1
Response: active

----------
- Test system: CCRIS mutagenicity, Ames/micronucleus/aberration tests
- run.description: CCRIS mutagenicity studies
- condition.notes: Test System: AMES SALMONELLA TYPHIMURIUM; Strain/Indicator: TA97; Metabolic Activation: NONE; Method: PREINCUBATION
Active and inactive are the calls of the source. The rule behind the calls is not given here.
Thanks in advance; please answer with one of these: active, inactive

# count of solved cases: 5
compound: O.O.O=C([O-])[C@H](O)[C@@H](O)[C@H](O)[C@H](O)CO.O=C([O-])[C@H](O)[C@@H](O)[C@H](O)[C@H](O)CO.[Fe+2]
class.label: inactive
//
compound: CCOP(=S)(OCC)Oc1cc(C)nc(C(C)C)n1
class.label: inactive
//
compound: Cc1c(N)cccc1N
class.label: inactive
//
compound: Cc1ccc(C)c(N)c1
class.label: inactive
//
compound: CN(C)/N=N/c1nc[nH]c1C(N)=O
class.label: active

Request: Which result was noted for this compound in the test: O[C@@H]1[C@H]2O[C@H]2c2c(ccc3c4ccccc4c4ccccc4c23)[C@H]1O
Response: active

Request: Which result was noted for this compound in the test: O=C(Cl)c1ccccc1[N+](=O)[O-]
Response: active

Request: Which result was noted for this compound in the test: CCCCCCCCCCCCCCCCCCCC
Response: inactive

Request: Which result was noted for this compound in the test: S=c1nc[nH]c2nc[nH]c12
Response: inactive

Request: Which result was noted for this compound in the test: Oc1ccc(Cl)c(Cl)c1Cl
Response: inactive

Request: Which result was noted for this compound in the test: CCOP(=O)(NC(C)C)Oc1ccc(SC)c(C)c1 (stereo not drawn)
Response: inactive

Request: Which result was noted for this compound in the test: ClCc1ccccc1
Response: inactive

Request: Which result was noted for this compound in the test: CC1CCCC1
Response: inactive

----------
- System: CCRIS mutagenicity, Ames/micronucleus/aberration tests
- run.description: CCRIS mutagenicity studies
- condition.notes: Test System: AMES SALMONELLA TYPHIMURIUM; Strain/Indicator: TA98; Metabolic Activation: NONE; Method: STANDARD PLATE
Activity calls are given as the source filed them. How the calls were made is not given here.
endpoint: mutagenic call

For orientation, consider the following solved cases.
smiles.text: O=C(O)/C=C/c1ccc([N+](=O)[O-])cc1
mutagenic call: active; positive
--
smiles.text: O=[N+]([O-])c1ccc2c3c(c(O)ccc13)-c1ccccc1-2
mutagenic call: active; positive
--
smiles.text: NC(=O)CCC(=O)Nc1ccc(Cl)c(Cl)c1
mutagenic call: inactive; negative
--
smiles.text: O=[N+]([O-])c1cccc(CO/N=C/c2nc3cc([N+](=O)[O-])ccc3n2Cc2ccc(F)cc2)c1
mutagenic call: inactive; negative
--
smiles.text: Cc1ncc(CNC(=O)N(CCCl)N=O)c(N)n1
mutagenic call: active; positive
--
smiles.text: C=C(C)C(C)=O
mutagenic call: inactive; negative
--
smiles.text: CC(C)(C)S(=O)(=O)C[C@@H](Cc1ccccc1)C(=O)N[C@@H](Cc1cnc[nH]1)C(=O)N[C@@H](CC1CCCCC1)[C@@H](O)[C@@H](O)C1CC1
mutagenic call: inactive; negative
--
smiles.text: CCOP(=S)(OCC)Oc1cc(C)nc(C(C)C)n1
mutagenic call: inactive; negative
--
smiles.text: CC(C)CN(C(=O)CCCl)c1snc2ccccc12
mutagenic call: inactive; negative
--
smiles.text: ClC(Cl)=C(Cl)c1cccc(Cl)c1Cl
mutagenic call: inactive; negative

Request: mutagenic call for CCc1cc(-c2ccccc2)cc(CC)c1N ?
Response: inactive; negative
